These measurements were taken from patent EP4725969A1.

target: T1, recombinant human HER2 extracellular domain protein (human, UniProt P04626 23-652); test: BLI, Protein A capture
T1 construct: range 23-652; Range is printed for the immunogen/panning protein; also called ErbB2; recombinant HER2 protein
Each item that follows carries a reported koff.
Quick note: give the figure in s⁻¹, leave out the unit.

- binder: "2126-Hu-H24 (antibody, IgG1, V domains shown, IgG1/Cκ) VH: QVQLVQSGSELKKPGASVKVSCKASGYTFTDYAMHWVRQAPGQGLEWMGWINTETGEPTYADDFKGRFVFSLDTSVSTAYLQISSLKAEDTAVYFCVRVGRYDYAMDYWGQGTTVTVSS VL: DIQMTQSPSSLSASVGDRVTITCKASQDVYTAVAWYQQKPGKAPKLLINSASYRYTGVPSRFSGSGSGTDFTLTISSLQPEDFATYYCQQHYSTPPTFGGGTKVEIK"
  endpoint-value: 0.00083
- binder: "2126-Hu-H51 (antibody, IgG1, name in Kabat numbering, V domains shown, IgG1/Cκ) VH: QVQLVQSGSELKKPGASVKVSCKASGYTFTDYSMHWVRQAPGQGLEWMGWINTETGEPTYADDFKGRFVFSLDTSVSTAYLQISSLKAEDTAVYFCVRVGRFDYAMDYWGQGTTVTVSS VL: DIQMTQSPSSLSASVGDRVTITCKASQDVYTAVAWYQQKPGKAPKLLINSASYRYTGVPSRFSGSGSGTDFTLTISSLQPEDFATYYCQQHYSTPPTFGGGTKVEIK"
  endpoint-value: 0.00244

Next:
Query: Tell me the measured koff of 2126-Hu-H57 (antibody, IgG1, name in Kabat numbering, V domains shown, IgG1/Cκ) VH: QVQLVQSGSELKKPGASVKVSCKASGYTFTDYSMHWVRQAPGQGLEWMGWINTETGEPTYADDFKGRFVFSLDTSVSTAYLQISSLKAEDTAVYFCVRVGRYGYAMDYWGQGTTVTVSS VL: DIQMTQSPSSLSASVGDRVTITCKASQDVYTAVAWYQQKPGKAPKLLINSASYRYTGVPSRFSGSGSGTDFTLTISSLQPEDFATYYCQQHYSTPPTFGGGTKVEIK , please.
Result: 0.00217
